- Target Under Test: Human GPR120 short form (Homo sapiens)
- Construct: expressed in transfected cells
- Experiment Summary: Human GPR120 calcium flux assay (FLIPR), Procedure Calcium A
- Type: cell-based
- Assay Conditions: HEK-293 cells expressing human GPR120 short form, 2500 cells/well; read-out: GPR120 Ca2+ Assay A EC50
Provide the recorded EC50 for the entries that follow.
Give bare numbers, in nM.

Below, 5 molecules whose answers are already recorded.
INSERT INTO measurements (molecule, unit_label, numeric_value) VALUES
  ('CCc1ccc(-c2csc(C(F)(F)F)c2COc2ccc(CCC(=O)O)c(C)c2C)cc1', 'nM', 199),
  ('O=C(O)CCc1cc(F)c(OCc2c(Cl)nsc2-c2ccc(Cl)cc2F)c(F)c1', 'nM', 100),
  ('OCCCc1cc(F)c(OCc2c(-c3ccc(Cl)cc3)nsc2C(F)(F)F)c(F)c1', 'nM', 76),
  ('OCCCc1cc(F)c(OCc2c(-c3ccc4c(c3)OCO4)nsc2C(F)(F)F)c(F)c1', 'nM', 71),
  ('CCc1ccc(-c2nsc(C(F)(F)F)c2COc2ccc3c(c2)OCC3CCO)cc1 (centres unmarked)', 'nM', 702);

I have 7 molecules here; please give me EC50 for each one.
1. CCc1nsc(-c2ccc(C)cc2F)c1COc1c(F)cc(CCC(=O)O)cc1F
2. CCc1ccc(-c2snc(Cl)c2COc2c(F)cc(CCC(=O)O)c(F)c2F)cc1
3. CCc1ccc(-c2nsc(OC)c2COc2ccc(CCC(=O)O)c(C)c2C)cc1
4. CCc1ccc(-c2snc(Cl)c2COc2ccc(CCC(=O)O)c(F)c2F)cc1
5. CCc1ccc(-c2cc(Cl)sc2COc2c(F)cc(CCC(=O)O)cc2F)cc1
6. Cc1ccc(-c2nsc(C(F)(F)F)c2COc2c(F)cc(CCC(=O)O)cc2F)c(F)c1
7. Cc1ccc(-c2nsc(C(F)(F)F)c2COc2c(F)cc(CCC(=O)O)cc2F)cc1F

1: 167; 2: 98; 3: 923; 4: 19; 5: 114; 6: 13; 7: 69

====

- Target Under Test: Human GPR120 short form (Homo sapiens)
- Construct: expressed in transfected cells
- Experiment Summary: Human GPR120 calcium flux assay (FLIPR), Procedure Calcium A
- Type: cell-based
- Assay Conditions: HEK-293 cells expressing human GPR120 short form, 2500 cells/well; read-out: GPR120 Ca2+ Assay A EC50
Assay Endpoint: log10(EC50) (log10 of the value in nM)
All values: base-10 log of EC50 in nM.

Below, 5 compounds whose answers are already recorded.
INSERT INTO measurements (compound, target_under_test, assay_endpoint, numeric_value) VALUES
  ('CCc1ccc(-c2snc(Cl)c2COc2ccc(CCCO)c(C)c2C)cc1 [Cpd 209]', 'Human GPR120 short form (Homo sapiens)', 'log10(EC50)', 2.76),
  ('Cc1ccc(-c2csc(C(F)(F)F)c2COc2c(F)cc(CCC(=O)O)cc2F)cn1 [Cpd 62]', 'Human GPR120 short form (Homo sapiens)', 'log10(EC50)', 2.87),
  ('O=C(O)CCc1ccc(OCc2csnc2-c2ccc(Cl)s2)c(F)c1F [Cpd 226]', 'Human GPR120 short form (Homo sapiens)', 'log10(EC50)', 2.93),
  ('CCc1ccc(-c2cc(Cl)sc2COc2ccc(CCC(=O)O)c(C)c2C)cc1 [Cpd 5]', 'Human GPR120 short form (Homo sapiens)', 'log10(EC50)', 1.79),
  ('CCc1ccc(-c2nsc(C(F)(F)F)c2COc2ccc(CCC(=O)O)c3sccc23)cc1 [Cpd 92]', 'Human GPR120 short form (Homo sapiens)', 'log10(EC50)', 1.85);

I have 3 compounds here; please give me log10(EC50) for each one.
1. CCc1ccc(-c2nsc(C(F)(F)C(F)(F)F)c2COc2ccc(CCC(=O)O)c(C)c2C)cc1 [Cpd 192]
2. CCc1ccc(-c2cc(C(F)(F)F)sc2COc2ccc(CCC(=O)O)c(F)c2F)cc1 [Cpd 21]
3. Cc1c(CCC(=O)O)cc(F)c(OCc2csnc2-c2ccc(Cl)cc2)c1F [Cpd 231]

2.52
2.90
3.01

====

Provide the recorded pEC50 for the entries that follow.
- Target Under Test: long form of human GPR120 (Homo sapiens)
- Experiment Summary: Human GPR120 DiscoveRx PathHunter Beta-Arrestin assay, Procedure β-arrestin A
- Assay Conditions: PathHunter CHO-K1 GPR120 β-Arrestin cell line, 3000 cells per well, read-out: hGPR120 β-arrestin A EC50
Numbers only, as −log10 of the molar value.

INSERT INTO results (compound, numeric_value) VALUES
  ('O=C(O)CCc1cc(F)c(OCc2c(-c3ccc(Cl)cc3F)nsc2C(F)(F)F)c(F)c1', 6.84);

I have 3 compounds here; please give me pEC50 for each one.
1. O=C(O)CCc1cc(F)c(OCc2c(-c3c(F)cc(Cl)cc3F)nsc2C(F)(F)F)c(F)c1
2. CCc1ccc(-c2cc(Cl)sc2COc2ccc(CCCO)c(F)c2F)cc1
3. O=C(O)CCc1cc(F)c(OCc2c(-c3ccc4c(c3)CCO4)csc2C(F)(F)F)c(F)c1

1. 6.54
2. 6.58
3. 6.67

I have 2 compounds here; please give me pEC50 for each one.
1. CCc1ccc(-c2nsc(C(F)(F)F)c2COc2ccc(CC(C)C(=O)O)cc2F)cc1 (stereo not drawn)
2. O=C(O)/C=C/c1ccc(OCc2c(Cl)nsc2-c2ccc(Cl)cc2)c(F)c1F

1. 6.66
2. 6.49

====

- Target Under Test: Human GPR120 short form (Homo sapiens)
- Construct: expressed in transfected cells
- Sequence (Q5NUL3 1-361): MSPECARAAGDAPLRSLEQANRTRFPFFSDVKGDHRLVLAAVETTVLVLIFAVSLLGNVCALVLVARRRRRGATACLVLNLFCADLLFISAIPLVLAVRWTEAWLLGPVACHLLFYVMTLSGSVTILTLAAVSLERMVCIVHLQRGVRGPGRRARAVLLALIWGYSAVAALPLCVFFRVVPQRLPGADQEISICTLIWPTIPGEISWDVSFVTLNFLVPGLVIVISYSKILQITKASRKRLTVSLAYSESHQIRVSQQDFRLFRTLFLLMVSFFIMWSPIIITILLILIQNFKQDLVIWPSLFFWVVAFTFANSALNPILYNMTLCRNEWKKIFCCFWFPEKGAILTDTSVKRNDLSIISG
- Experiment Summary: Human GPR120 calcium flux assay (FLIPR), Procedure Calcium A
- Assay type: cell-based
- Assay Conditions: HEK-293 cells expressing human GPR120 short form, 2500 cells/well; read-out: GPR120 Ca2+ Assay A EC50
Sorting guide: entries reporting EC50 beneath 200 nM go in the True pile, the rest go in the False pile.

INSERT INTO assay_data (compound, cat) VALUES
  ('CCc1ccc(-c2cscc2COc2ccc(CCC(=O)O)c(C)c2C)cc1 [Cpd 41]', 'True'),
  ('Cc1c(CCC(=O)O)ccc(OCc2c(C3CCC(F)(F)C3)nsc2C(F)(F)F)c1C (stereo not drawn) [Cpd 199]', 'False'),
  ('CCc1ccc(-c2cc(C)sc2COc2ccc(CCC(=O)O)c(C)c2C)cc1 [Cpd 13]', 'True'),
  ('Cc1c(CCC(=O)O)ccc(OCc2c(-c3ncc(Cl)cc3F)nsc2C(F)(F)F)c1C [Cpd 180]', 'False'),
  ('O=C(O)CCc1cc(Br)c(OCc2c(-c3ccc(Cl)cc3)nsc2C(F)(F)F)c(Br)c1 [Cpd 241]', 'False'),
  ('CCc1ccc(-c2nsc(C(F)(F)F)c2COc2ccc3c(c2)CCC3CC(=O)O)cc1 (stereo not drawn) [Cpd 176]', 'False'),
  ('COc1cc(-c2nsc(C(F)(F)F)c2COc2c(F)cc(CCC(=O)O)cc2F)ccc1Cl [Cpd 177]', 'False'),
  ('COc1ccc(-c2nsc(C(F)(F)F)c2COc2c(F)cc(CCCO)cc2F)cn1 [Cpd 81]', 'True'),
  ('O=C(O)CCc1ccc(OCc2c(-c3ccc(Cl)cc3)csc2C(F)(F)F)c(F)c1F [Cpd 47]', 'True'),
  ('CCc1ccc(-c2nsc(C(F)(F)F)c2COc2ccc(CCC(=O)O)c(C)c2C)c(F)c1 [Cpd 225]', 'False');

Is the reported EC50 for COc1cccc(-c2nsc(C(F)(F)F)c2COc2c(F)cc(CCC(=O)O)cc2F)c1 [Cpd 94] strictly below 200 nM?
True

====

Provide the recorded pEC50 for the entries that follow.
- Target Under Test: Human GPR120 short form (Homo sapiens, UniProt Q5NUL3)
- Construct: expressed in transfected cells
- Experiment Summary: Human GPR120 calcium flux assay (FLIPR), Procedure Calcium A
- Format: cell-based
- Assay Conditions: HEK-293 cells expressing human GPR120 short form, 2500 cells/well; read-out: GPR120 Ca2+ Assay A EC50
Give bare numbers, as −log10 of the molar value.

INSERT INTO assay_data (item_smiles, assay_endpoint, numeric_value) VALUES
  ('O=C(O)CCc1cc(F)c(OCc2c(C(F)(F)F)nsc2-c2ccc(Cl)c(F)c2)c(F)c1', 'pEC50', 7.03),
  ('O=C(O)CCc1ccc(OCc2c(-c3ccc(Cl)cc3)nsc2C(F)(F)F)c(F)c1F', 'pEC50', 7.07);

Proceeding to the next molecule to report its pEC50.
Any idea what pEC50 was measured for OCCCc1cc(F)c(OCc2c(-c3ccc4c(c3)OCO4)csc2C(F)(F)F)c(F)c1 ?
7.03

meta.source: patent US9067898B1
